FYI, the data here is from patent US20190315854A1.

- target: T1, sIL-6R (soluble IL-6 receptor; SBH Sciences) (human, UniProt P08887 20-365)
- T1 construct: also called human IL-6R
- T1 sequence: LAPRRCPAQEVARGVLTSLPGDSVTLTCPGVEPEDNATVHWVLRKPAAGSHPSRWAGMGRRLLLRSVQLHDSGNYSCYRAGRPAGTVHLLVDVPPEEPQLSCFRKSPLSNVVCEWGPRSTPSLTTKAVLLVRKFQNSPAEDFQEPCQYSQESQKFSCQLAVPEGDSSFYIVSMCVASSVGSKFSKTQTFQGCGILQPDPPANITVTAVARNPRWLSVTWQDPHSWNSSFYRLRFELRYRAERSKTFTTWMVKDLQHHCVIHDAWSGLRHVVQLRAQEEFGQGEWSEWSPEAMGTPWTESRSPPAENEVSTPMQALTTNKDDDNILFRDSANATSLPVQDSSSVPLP
- measurement description: SPR (BIAcore 3000), antibody on chip, sIL-6R analyte, 25 C
reported endpoint: kon (M⁻¹ s⁻¹)
Report the figure in M⁻¹ s⁻¹ without appending any unit label.

35# (antibody, human IgG1, kappa, V domains shown, also called Sample # 35) VH: QVQLQESGPGLVRPSQTLSLTCTVSGYSITSDHAWSWVRQPPGRGLEWIGYISYSGITTYNPSLKSRVTMLRDTSKNQFSLRLSSVTAADTAVYYCARSLARMTAMDYWGQGSLVTVSS VL: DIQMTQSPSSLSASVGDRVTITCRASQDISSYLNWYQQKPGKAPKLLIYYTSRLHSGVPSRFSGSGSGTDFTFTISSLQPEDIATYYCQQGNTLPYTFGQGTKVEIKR	225000
30# (antibody, human IgG1, kappa, V domains shown, also called Sample # 30) VH: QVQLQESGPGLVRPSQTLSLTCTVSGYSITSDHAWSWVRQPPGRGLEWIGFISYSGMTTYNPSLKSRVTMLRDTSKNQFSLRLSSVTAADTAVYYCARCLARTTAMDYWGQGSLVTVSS VL: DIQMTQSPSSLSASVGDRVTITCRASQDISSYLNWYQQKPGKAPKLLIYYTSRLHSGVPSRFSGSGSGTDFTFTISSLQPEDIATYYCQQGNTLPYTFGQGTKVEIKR	327000

Moving on to another binder below.
Q. Report kon for Tocilizumab (antibody, human IgG1, kappa, V domains shown, also called 25; 25(control)) VH: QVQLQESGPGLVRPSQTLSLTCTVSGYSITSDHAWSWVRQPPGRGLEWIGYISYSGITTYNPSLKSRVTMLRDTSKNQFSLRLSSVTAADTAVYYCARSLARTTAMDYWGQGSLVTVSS VL: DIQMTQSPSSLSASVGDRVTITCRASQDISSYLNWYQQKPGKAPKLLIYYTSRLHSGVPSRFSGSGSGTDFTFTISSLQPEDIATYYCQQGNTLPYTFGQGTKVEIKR please.
A. 207000
